Molecular target: acetylcholinesterase (AChE) (Homo sapiens, UniProt P22303)
Sequence (P22303 32-614): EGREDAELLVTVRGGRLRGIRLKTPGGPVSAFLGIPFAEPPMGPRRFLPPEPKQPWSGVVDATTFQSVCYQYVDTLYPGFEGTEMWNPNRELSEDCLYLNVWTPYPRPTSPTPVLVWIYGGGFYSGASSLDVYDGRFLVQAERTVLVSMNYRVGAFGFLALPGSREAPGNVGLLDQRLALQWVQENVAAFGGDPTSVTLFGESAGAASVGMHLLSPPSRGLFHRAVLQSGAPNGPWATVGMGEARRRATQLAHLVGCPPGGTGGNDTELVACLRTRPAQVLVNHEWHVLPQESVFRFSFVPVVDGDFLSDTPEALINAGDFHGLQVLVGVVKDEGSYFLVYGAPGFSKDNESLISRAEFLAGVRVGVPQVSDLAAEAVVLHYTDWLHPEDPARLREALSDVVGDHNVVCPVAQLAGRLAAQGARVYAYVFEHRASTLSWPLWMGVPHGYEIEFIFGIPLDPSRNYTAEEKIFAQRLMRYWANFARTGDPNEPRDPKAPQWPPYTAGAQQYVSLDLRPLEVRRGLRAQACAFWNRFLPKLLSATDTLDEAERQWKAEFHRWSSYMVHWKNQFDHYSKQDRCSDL
Experiment: biochemical
Conditions: compounds 1–19; mean ± SD, at least triplicate; read-out: AChE IC50
Provide the recorded IC50 for the entries that follow.
Entry rule: numbers only, all in µM.

Report measured IC50; entry is COc1cccc(OC)c1-c1cc(=O)c2c(O)cccc2o1 [Compound 4, 5-hydroxy-2’,6’-dimethoxyflavone]
325

Report measured IC50; entry is O=C(CC(=O)c1ccccc1)c1ccccc1 [Compound 1, 1,3-diphenylpropane-1,3-dione]
145

Report measured IC50; entry is COc1ccc(OC)c(-c2cc(=O)c3c(O)cccc3o2)c1OC [Compound 5, 5-hydroxy-2’,3’,6’-trimethoxyflavone]
285

Report measured IC50; entry is O=c1cc(-c2ccccc2)oc2cccc(O)c12 [Compound 2, 5-hydroxyflavone]
314

----------
Provide the recorded IC50 for the entries that follow.
Target: acetylcholinesterase (AChE) (Homo sapiens)
Experiment: biochemical
Details: compounds 1–19; mean ± SD, at least triplicate; read-out: AChE IC50
Entry rule: numbers only, all in µM.

Report measured IC50; entry is O=c1c(OC2OC(COC3OCC(O)C(O)C3O)C(O)C(O)C2O)c(-c2ccc(O)cc2)oc2cc(O)cc(O)c12 (centres unmarked)
364

Report measured IC50; entry is O=c1c(OC2OC(COC3OCC(O)C(O)C3O)C(O)C(O)C2O)c(-c2ccc(O)c(O)c2)oc2cc(O)cc(O)c12 (centres unmarked)
303

Report measured IC50; entry is CC1OC(OCC2OC(Oc3c(-c4ccc(O)cc4)oc4cc(O)cc(O)c4c3=O)C(O)C(O)C2O)C(O)C(O)C1O (centres unmarked)
407

Report measured IC50; entry is O=c1cc(-c2ccccc2O)oc2cccc(O)c12 [Compound 11, 5,2′-dihydroxyflavone]
372

Report measured IC50; entry is O=c1cc(-c2ccccc2)oc2cc(O)cc(O)c12 [Compound 13, 5,7-dihydroxyflavone]
330

Report measured IC50; entry is COc1ccccc1-c1cc(=O)c2c(O)cccc2o1 [Compound 3, 5-hydroxy-2′-methoxyflavone]
280

Report measured IC50; entry is COc1ccc2oc(-c3ccccc3O)cc(=O)c2c1O [Compound 6, 2’,5-dihydroxy-6-methoxyflavone]
392

Report measured IC50; entry is O=c1cc(-c2ccccc2O[C@@H]2O[C@H](CO)[C@@H](O)[C@H](O)[C@H]2O)oc2cccc(O)c12
400

Report measured IC50; entry is COc1ccc(O)c(-c2cc(=O)c3c(O)cccc3o2)c1OC [Compound 7, 5,6′-dihydroxy-2′,3′-dimethoxyflavone]
391

Report measured IC50; entry is O=c1cc(-c2ccccc2)oc2ccc(O)c(O)c12 [Compound 12, 5,6-dihydroxyflavone]
362

Report measured IC50; entry is O=c1cc(-c2ccccc2)oc2ccc(OC3OC(COC4OC(CO)C(O)C(O)C4O)C(O)C(O)C3O)c(O)c12 (centres unmarked)
376

Cited source for all entries: paper PMC9692424
